src = the NIST ThermoML archive (doi:10.1021/je900550v)

# conditions: 321.41 K; 101.33 kPa; Liquid; Pulse-echo method
valueType: speed of sound (m/s)

C[NH2+]CCO.O=C[O-] [2-hydroxy-N-methylethanaminium formate] ... 1770
CCCCC(=O)[O-].C[NH2+]CCO [2-hydroxy-N-methylethanaminium pentanoate] ... 1476.9
CCCC(=O)[O-].C[NH2+]CCO [N-methyl-2-hydroxyethylammonium butanoate] ... 1541.7
CC(C)C(=O)[O-].C[NH2+]CCO [2-hydroxy-N-methylethanaminium isobutyrate] ... 1545.6
CCC(=O)[O-].C[NH2+]CCO [2-hydroxy-N-methylethanaminium propionate] ... 1621.2

====

# conditions: 328.41 K; 101.33 kPa; Liquid; Vibrating tube method
valueType: mass density (kg/m3)

CCCCC(=O)[O-].C[NH2+]CCO [2-hydroxy-N-methylethanaminium pentanoate] ... 995.577
CC(C)C(=O)[O-].C[NH2+]CCO [2-hydroxy-N-methylethanaminium isobutyrate] ... 1023.5
CCCC(=O)[O-].C[NH2+]CCO [N-methyl-2-hydroxyethylammonium butanoate] ... 1018.6
C[NH2+]CCO.O=C[O-] [2-hydroxy-N-methylethanaminium formate] ... 1111.46
CC(=O)[O-].C[NH2+]CCO [N-methyl-2-hydroxyethylammonium acetate] ... 1082.34
CCC(=O)[O-].C[NH2+]CCO [2-hydroxy-N-methylethanaminium propionate] ... 1051.27

====

# conditions: 297.65 K; 101.33 kPa; Liquid; Vibrating tube method
valueType: mass density (kg/m3)

C[NH2+]CCO.O=C[O-] [2-hydroxy-N-methylethanaminium formate] ... 1128.52
CCCC(=O)[O-].C[NH2+]CCO [N-methyl-2-hydroxyethylammonium butanoate] ... 1039.59
CC(C)C(=O)[O-].C[NH2+]CCO [2-hydroxy-N-methylethanaminium isobutyrate] ... 1043.68
CC(=O)[O-].C[NH2+]CCO [N-methyl-2-hydroxyethylammonium acetate] ... 1101.11
CCC(=O)[O-].C[NH2+]CCO [2-hydroxy-N-methylethanaminium propionate] ... 1071.59
CCCCC(=O)[O-].C[NH2+]CCO [2-hydroxy-N-methylethanaminium pentanoate] ... 1016.55

====

# conditions: 281.4 K; 101.33 kPa; Liquid; Pulse-echo method
valueType: speed of sound (m/s)

CCCCC(=O)[O-].C[NH2+]CCO [2-hydroxy-N-methylethanaminium pentanoate] ... 1604.6
CCC(=O)[O-].C[NH2+]CCO [2-hydroxy-N-methylethanaminium propionate] ... 1741.5
CCCC(=O)[O-].C[NH2+]CCO [N-methyl-2-hydroxyethylammonium butanoate] ... 1671.1
CC(C)C(=O)[O-].C[NH2+]CCO [2-hydroxy-N-methylethanaminium isobutyrate] ... 1660
C[NH2+]CCO.O=C[O-] [2-hydroxy-N-methylethanaminium formate] ... 1848.2

====

# conditions: 314.4 K; 101.33 kPa; Liquid; Vibrating tube method
valueType: mass density (kg/m3)

CC(C)C(=O)[O-].C[NH2+]CCO [2-hydroxy-N-methylethanaminium isobutyrate] ... 1032.84
C[NH2+]CCO.O=C[O-] [2-hydroxy-N-methylethanaminium formate] ... 1119.18
CCC(=O)[O-].C[NH2+]CCO [2-hydroxy-N-methylethanaminium propionate] ... 1060.67
CC(=O)[O-].C[NH2+]CCO [N-methyl-2-hydroxyethylammonium acetate] ... 1091.02
CCCC(=O)[O-].C[NH2+]CCO [N-methyl-2-hydroxyethylammonium butanoate] ... 1028.29
CCCCC(=O)[O-].C[NH2+]CCO [2-hydroxy-N-methylethanaminium pentanoate] ... 1005.27

====

# conditions: 329.65 K; 101.33 kPa; Liquid; Vibrating tube method
valueType: mass density (kg/m3)

CCCCC(=O)[O-].C[NH2+]CCO [2-hydroxy-N-methylethanaminium pentanoate] ... 994.701
CCC(=O)[O-].C[NH2+]CCO [2-hydroxy-N-methylethanaminium propionate] ... 1050.42
CC(=O)[O-].C[NH2+]CCO [N-methyl-2-hydroxyethylammonium acetate] ... 1081.55
CCCC(=O)[O-].C[NH2+]CCO [N-methyl-2-hydroxyethylammonium butanoate] ... 1017.72
C[NH2+]CCO.O=C[O-] [2-hydroxy-N-methylethanaminium formate] ... 1110.78
CC(C)C(=O)[O-].C[NH2+]CCO [2-hydroxy-N-methylethanaminium isobutyrate] ... 1022.65

====

# conditions: 327.66 K; 101.33 kPa; Liquid; Pulse-echo method
valueType: speed of sound (m/s)

CCC(=O)[O-].C[NH2+]CCO [2-hydroxy-N-methylethanaminium propionate] ... 1602.4
C[NH2+]CCO.O=C[O-] [2-hydroxy-N-methylethanaminium formate] ... 1758
CCCCC(=O)[O-].C[NH2+]CCO [2-hydroxy-N-methylethanaminium pentanoate] ... 1457.8
CC(C)C(=O)[O-].C[NH2+]CCO [2-hydroxy-N-methylethanaminium isobutyrate] ... 1527.8
CCCC(=O)[O-].C[NH2+]CCO [N-methyl-2-hydroxyethylammonium butanoate] ... 1522.2

====

# conditions: 309.65 K; 101.33 kPa; Liquid; Vibrating tube method
valueType: mass density (kg/m3)

CC(C)C(=O)[O-].C[NH2+]CCO [2-hydroxy-N-methylethanaminium isobutyrate] ... 1035.95
CCC(=O)[O-].C[NH2+]CCO [2-hydroxy-N-methylethanaminium propionate] ... 1063.81
CC(=O)[O-].C[NH2+]CCO [N-methyl-2-hydroxyethylammonium acetate] ... 1093.92
CCCC(=O)[O-].C[NH2+]CCO [N-methyl-2-hydroxyethylammonium butanoate] ... 1031.52
CCCCC(=O)[O-].C[NH2+]CCO [2-hydroxy-N-methylethanaminium pentanoate] ... 1008.5
C[NH2+]CCO.O=C[O-] [2-hydroxy-N-methylethanaminium formate] ... 1121.83

====

# conditions: 284.4 K; 101.33 kPa; Liquid; Vibrating tube method
valueType: mass density (kg/m3)

CC(C)C(=O)[O-].C[NH2+]CCO [2-hydroxy-N-methylethanaminium isobutyrate] ... 1052.11
C[NH2+]CCO.O=C[O-] [2-hydroxy-N-methylethanaminium formate] ... 1135.93
CC(=O)[O-].C[NH2+]CCO [N-methyl-2-hydroxyethylammonium acetate] ... 1109.07
CCC(=O)[O-].C[NH2+]CCO [2-hydroxy-N-methylethanaminium propionate] ... 1080.23
CCCC(=O)[O-].C[NH2+]CCO [N-methyl-2-hydroxyethylammonium butanoate] ... 1048.52
CCCCC(=O)[O-].C[NH2+]CCO [2-hydroxy-N-methylethanaminium pentanoate] ... 1025.5

====

# conditions: 317.91 K; 101.33 kPa; Liquid; Vibrating tube method
valueType: mass density (kg/m3)

CCCC(=O)[O-].C[NH2+]CCO [N-methyl-2-hydroxyethylammonium butanoate] ... 1025.89
C[NH2+]CCO.O=C[O-] [2-hydroxy-N-methylethanaminium formate] ... 1117.24
CCC(=O)[O-].C[NH2+]CCO [2-hydroxy-N-methylethanaminium propionate] ... 1058.34
CC(C)C(=O)[O-].C[NH2+]CCO [2-hydroxy-N-methylethanaminium isobutyrate] ... 1030.53
CC(=O)[O-].C[NH2+]CCO [N-methyl-2-hydroxyethylammonium acetate] ... 1088.87
CCCCC(=O)[O-].C[NH2+]CCO [2-hydroxy-N-methylethanaminium pentanoate] ... 1002.86

====

# conditions: 319.41 K; 101.33 kPa; Liquid; Vibrating tube method
valueType: mass density (kg/m3)

CCCC(=O)[O-].C[NH2+]CCO [N-methyl-2-hydroxyethylammonium butanoate] ... 1024.86
C[NH2+]CCO.O=C[O-] [2-hydroxy-N-methylethanaminium formate] ... 1116.41
CCCCC(=O)[O-].C[NH2+]CCO [2-hydroxy-N-methylethanaminium pentanoate] ... 1001.83
CC(=O)[O-].C[NH2+]CCO [N-methyl-2-hydroxyethylammonium acetate] ... 1087.94
CC(C)C(=O)[O-].C[NH2+]CCO [2-hydroxy-N-methylethanaminium isobutyrate] ... 1029.53
CCC(=O)[O-].C[NH2+]CCO [2-hydroxy-N-methylethanaminium propionate] ... 1057.34

====

# conditions: 283.9 K; 101.33 kPa; Liquid; Pulse-echo method
valueType: speed of sound (m/s)

C[NH2+]CCO.O=C[O-] [2-hydroxy-N-methylethanaminium formate] ... 1843.3
CC(C)C(=O)[O-].C[NH2+]CCO [2-hydroxy-N-methylethanaminium isobutyrate] ... 1652.4
CCCCC(=O)[O-].C[NH2+]CCO [2-hydroxy-N-methylethanaminium pentanoate] ... 1595.7
CCC(=O)[O-].C[NH2+]CCO [2-hydroxy-N-methylethanaminium propionate] ... 1733.4
CCCC(=O)[O-].C[NH2+]CCO [N-methyl-2-hydroxyethylammonium butanoate] ... 1662.1

====

# conditions: 299.9 K; 101.33 kPa; Liquid; Vibrating tube method
valueType: mass density (kg/m3)

CC(C)C(=O)[O-].C[NH2+]CCO [2-hydroxy-N-methylethanaminium isobutyrate] ... 1042.25
C[NH2+]CCO.O=C[O-] [2-hydroxy-N-methylethanaminium formate] ... 1127.27
CCCCC(=O)[O-].C[NH2+]CCO [2-hydroxy-N-methylethanaminium pentanoate] ... 1015.02
CC(=O)[O-].C[NH2+]CCO [N-methyl-2-hydroxyethylammonium acetate] ... 1099.78
CCC(=O)[O-].C[NH2+]CCO [2-hydroxy-N-methylethanaminium propionate] ... 1070.15
CCCC(=O)[O-].C[NH2+]CCO [N-methyl-2-hydroxyethylammonium butanoate] ... 1038.05
